Experiment: amyloid nucleation score (Sup35N fusion, yeast selection) (log enrichment); library NNK2; higher = more nucleation; inactive = no reads after selection;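 note: zero at mode of non-aggregating sequences after 7 days selection at 30°C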
Decision: amyloid nucleation score >= -0.02 yields true, all other cases yield false.

*Q* Tell me whether amyloid nucleation score is at least -0.02 here: ASGVNFGT
*A* false

*Q* Threshold query (amyloid nucleation score >= -0.02) on QLCLLCFLYMC
*A* true

*Q* Could you verify whether the entry SMDRLRRDGYLGSVVCYNRS shows amyloid nucleation score of no less than -0.02?
*A* false

*Q* Is reported amyloid nucleation score greater than or equal to -0.02 here: LCNGLFTFMEASSGRHAPQF
*A* true

*Q* Please tell me: is the substance VGWHPPVLTEYTMDQTAYTT at or over -0.02 in terms of amyloid nucleation score?
*A* true

*Q* Would you say AVRYSLFF shows amyloid nucleation score at minimum -0.02?
*A* true

*Q* Does CEHDCSPTYDGLSYASFVRE have a reported amyloid nucleation score of at least -0.02?
*A* true

*Q* Is reported amyloid nucleation score greater than or equal to -0.02 here: LIVVKCLSRRYCFCLLSVVV
*A* true

*Q* API: above_or_equal(metric=amyloid nucleation score, cutoff=-0.02) for item CSIPCCVGHTLSLGRQFVFV
*A* true

*Q* hey, is amyloid nucleation score for this one >= -0.02? HIIISKYHINYCRMMNYSGK
*A* true

*Q* Textbook exercise: given the entry RLFDRSVLPLGLWVRCKIHW , state whether its amyloid nucleation score is greater than or equal to -0.02.
*A* true

*Q* I'd appreciate it if you could say whether WLGRCVNNNLNDVCDFQT has amyloid nucleation score at least equal to -0.02.
*A* false

*Q* Quick check: does MHMYMRSGFLLLFVSWVREC have amyloid nucleation score greater than or equal to -0.02?
*A* false

*Q* Please check the record FMSIFDWSCVWFYLCKGTWD and state if its amyloid nucleation score is at or above -0.02.
*A* false

*Q* Threshold query (amyloid nucleation score >= -0.02) on KTTHDCGSAHVGL
*A* false

*Q* Check if amyloid nucleation score >= -0.02 (inclusive). Item: PDRVLLYKLTVRRFTGCDWG
*A* true

*Q* # bool: amyloid nucleation score of KIIISYGQCK >= -0.02
*A* true

*Q* Please indicate if the recorded amyloid nucleation score for SVFYVSKSSLTPDLDSVFLS meets or exceeds -0.02.
*A* false

*Q* Item MKNTVE with amyloid nucleation score of -0.02 or above?
*A* false

*Q* Determine whether this substance has amyloid nucleation score no lower than -0.02: DQALGGEMWWL
*A* false

*Q* Decide: amyloid nucleation score of SMLSSMYFKFPL >= -0.02?
*A* true

*Q* Could you please find out whether NFLGGLNRFLNCSSM has amyloid nucleation score that meets -0.02 or exceeds it?
*A* false

*Q* hey, is amyloid nucleation score for this one >= -0.02? MVINSFPPGWVRGHMIKSTG
*A* false

*Q* Given the entry FPMFSYTSMHYGH , answer whether its amyloid nucleation score meets or surpasses -0.02.
*A* true

*Q* Entry GTSWTVTID : is its amyloid nucleation score no less than -0.02?
*A* true

*Q* Does NVIMMDLWVDLAFKSLGYG have a reported amyloid nucleation score of at least -0.02?
*A* true

*Q* Item VHLSKDLCYLLSGYGYFPCF with amyloid nucleation score of -0.02 or above?
*A* false

*Q* Threshold query (amyloid nucleation score >= -0.02) on TAVWDL
*A* true

*Q* Threshold query (amyloid nucleation score >= -0.02) on YNQRTFVSVSYEWTSGPWVC
*A* true

*Q* Has CPISCTYMEYTSWSSSRC a recorded amyloid nucleation score greater than or equal to -0.02?
*A* true

*Q* Check the entry CTRSFVTQSDEDSPIGSDR : does amyloid nucleation score equal or exceed -0.02?
*A* false

*Q* Hi, just wondering whether ALYRSGHLMLTVNGGCWWDF shows amyloid nucleation score of -0.02 or higher.
*A* true

*Q* Does the substance YTFCKHDVYAISLRFVLAPY have recorded amyloid nucleation score that is -0.02 or more?
*A* true

*Q* Say whether GVTPYCKRHV shows amyloid nucleation score of -0.02 or more.
*A* false

*Q* Does the reported amyloid nucleation score for GCNIRTNVGRLCMSYPDSNR fall at or above the -0.02 mark?
*A* true

*Q* Decide: is the reported value of amyloid nucleation score for GGMVVPGKYRDRGY equal to or greater than -0.02?
*A* false

*Q* Could you verify whether the entry SKCIASFNLRSYCMSRLASS shows amyloid nucleation score of no less than -0.02?
*A* false

*Q* Answer whether amyloid nucleation score of NRKSSHYSKNCRTLLHTS is greater than or equal to -0.02.
*A* false

*Q* Exam item: decide whether the reported amyloid nucleation score for MGYRFSGDLMEGRSTEWWRA is at least -0.02.
*A* true

*Q* Quick check, amyloid nucleation score >= -0.02? FDWFNAYSF
*A* true

*Q* Reported amyloid nucleation score reaches at least -0.02 for WFFFFNGPAYVFNLNIVNFS ?
*A* true

*Q* Is the recorded value of amyloid nucleation score equal to or greater than -0.02 for this substance? GSELMTSLSFVCGHVAAPAD
*A* true

*Q* For this substance, is measured amyloid nucleation score -0.02 or higher? VNECSFYIIPQTAQWCLVV
*A* true

*Q* Tell me whether amyloid nucleation score is at least -0.02 here: RYALNYTIPEPYWT
*A* false

*Q* # check: amyloid nucleation score of YSAVKCFPYRLPLNYAQIGA is greater than or equal to -0.02
*A* true

*Q* Hi team, for VDLRQCENLHRPWRFRRSGK , is the recorded amyloid nucleation score at or above -0.02?
*A* true

*Q* Exam item: decide whether the reported amyloid nucleation score for SYYLALYLMEYFYLDDARLN is at least -0.02.
*A* false

*Q* Exam item: decide whether the reported amyloid nucleation score for RTVIQQVPAPLARAGVRWGW is at least -0.02.
*A* true

*Q* Exam item: decide whether the reported amyloid nucleation score for SQRHRAFTSWRGLMRYN is at least -0.02.
*A* false

*Q* Record VYFSSSIADKFYNLISVRFI ; criterion: amyloid nucleation score no lower than -0.02. Met?
*A* true

*Q* Check this substance for amyloid nucleation score at or above -0.02: PSDTYNNDG
*A* true

*Q* Decide: amyloid nucleation score of CFGRMVTSNSSDLRYSNDRL >= -0.02?
*A* true

*Q* Does the substance WDNLNDFHN have recorded amyloid nucleation score that is -0.02 or more?
*A* false

*Q* Does amyloid nucleation score meet or surpass -0.02 for HNWLSMVQYH ?
*A* false

*Q* Dear colleague, could you confirm whether MVPKNFYFRRWLSWLRVRLL has amyloid nucleation score at or above -0.02?
*A* true

*Q* Please indicate if the recorded amyloid nucleation score for FYVRGGCI meets or exceeds -0.02.
*A* false

*Q* Please check the record YLLVLFGSGTYITPTLLRIN and state if its amyloid nucleation score is at or above -0.02.
*A* false

*Q* Does the reported amyloid nucleation score for MIMEQSNNISNCLFVMQGPK fall at or above the -0.02 mark?
*A* true

*Q* Confirm if amyloid nucleation score reported for the substance WWSKEREYWSLPVGWFMEAV is -0.02 or above.
*A* true

*Q* Could you tell me if the measured amyloid nucleation score of CLSLSLVMSVGVLKSISQYS reaches -0.02 or more?
*A* true

*Q* Item CHGRGISYQLLQNRNQQP with amyloid nucleation score of -0.02 or above?
*A* true

*Q* Quick check: does RPISLCALYWLNLRANIHCR have amyloid nucleation score greater than or equal to -0.02?
*A* true

*Q* In plain terms: is recorded amyloid nucleation score at least -0.02 for INCFSLLEPLEYFSRLCQQR ?
*A* false

*Q* Check this substance for amyloid nucleation score at or above -0.02: VTFFTAFLTFVYCCMMLMYM
*A* true

*Q* Identify whether the reported amyloid nucleation score of the following substance is -0.02 or greater: IYPSVRYPMYAITKRYSRVG
*A* false

*Q* Check this substance for amyloid nucleation score at or above -0.02: RIIKYIMNGRRFVVLWRVFS
*A* true

*Q* Tell me whether amyloid nucleation score is at least -0.02 here: SCFLNMTLILDLVITGMMPR
*A* false
